Test: Plasma pharmacokinetics of ALM201 in Phase I patients (validated LC-MS/MS, Phoenix WinNonlin)
Settings: human, plasma, sc, 20 mg, Cmax, Gmean (CV), 20 mg SC, day 18 cycle 2, n = 1; plasma LC-MS/MS
No end group written: not given here.
outcome measure: Cmax (ng/mL)
Field format: number, assumed ng/mL, no unit text.

# Cmax lookup, item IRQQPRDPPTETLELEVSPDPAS [ALM201]
394

---

Assay: Plasma pharmacokinetics of ALM201 in Phase I patients (validated LC-MS/MS, Phoenix WinNonlin)
Conditions: human, plasma, sc, 300 mg, AUC0-t, Gmean (CV), 300 mg SC, day 3 cycle 1, n = 3; plasma LC-MS/MS
No end group written: not given here.
outcome measure: AUC(0-t)
Please format your answer as a value with the unit trailing.

# AUC(0-t) lookup, item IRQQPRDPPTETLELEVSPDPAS [ALM201]
12500 ng·h/mL

---

Assay: Plasma pharmacokinetics of ALM201 in Phase I patients (validated LC-MS/MS, Phoenix WinNonlin)
Settings: human, plasma, sc, 300 mg, Plasma concentration, geometric mean (CV%), 300 mg SC, day 18 cycle 4, sample collected at 4.5 hours, n = 1; LC-MS/MS
No end group written: not given here.
outcome measure: level at 4.5 h (ng/mL)
Field format: number, assumed ng/mL, no unit text.

# level at 4.5 h lookup, item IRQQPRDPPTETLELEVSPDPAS [ALM201]
854

---

Assay: Plasma pharmacokinetics of ALM201 in Phase I patients (validated LC-MS/MS, Phoenix WinNonlin)
Settings: human, plasma, sc, 40 mg, Plasma concentration, geometric mean (CV%), 40 mg SC, day 1 cycle 1, 2 h after dosing, n = 1; LC-MS/MS
No end group written: not given here.
outcome measure: level at 2 h (ng/mL)
Field format: number, assumed ng/mL, no unit text.

# level at 2 h lookup, item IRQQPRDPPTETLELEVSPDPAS [ALM201]
540

---

Test: Plasma pharmacokinetics of ALM201 in Phase I patients (validated LC-MS/MS, Phoenix WinNonlin)
Settings: human, plasma, sc, 200 mg, AUC0-t, Gmean (CV), 200 mg SC, day 18 cycle 4, n = 2, CV not calculated; plasma LC-MS/MS
No end group written: not given here.
outcome measure: AUC(0-t) (ng·h/mL)
Field format: number, assumed ng·h/mL, no unit text.

# AUC(0-t) lookup, item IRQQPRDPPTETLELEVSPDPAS [ALM201]
6110

---

Test: Plasma pharmacokinetics of ALM201 in Phase I patients (validated LC-MS/MS, Phoenix WinNonlin)
Settings: human, plasma, sc, 20 mg, Plasma concentration, geometric mean (CV%), 20 mg SC, day 18 cycle 1, 3.5 h after dosing, n = 1; LC-MS/MS
No end group written: not given here.
outcome measure: level at 3.5 h

# level at 3.5 h lookup, item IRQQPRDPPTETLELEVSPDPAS [ALM201]
113 ng/mL

---

Assay: Plasma pharmacokinetics of ALM201 in Phase I patients (validated LC-MS/MS, Phoenix WinNonlin)
Conditions: human, plasma, sc, 200 mg, Plasma concentration, geometric mean (CV%), 200 mg SC, day 18 cycle 2, 5 h after dosing, n = 2; LC-MS/MS
No end group written: not given here.
outcome measure: level at 5 h (µg/mL)
Field format: number, assumed µg/mL, no unit text.

# level at 5 h lookup, item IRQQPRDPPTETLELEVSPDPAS [ALM201]
0.69
